target: Aβ1-42 peptide (Homo sapiens); assay: Thioflavin T spectrofluorescence assay (ThT-assay): inhibition of Aβ1-42 aggregation (% inhibition at 330 μM; IC50 from dilution series); details: 24 h, read-out: Inhibition at 330 μM [%], ThT assay; 330 μM small molecule, 33 μM Aβ1-42 (10:1), 24 hrs at 37° C.; mean ± standard deviation of two independent experiments
Sequence (P05067 672-713 limits assumed): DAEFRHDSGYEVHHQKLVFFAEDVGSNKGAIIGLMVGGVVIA
assay readout: inhibition at 330 µM (%)

COc1ccc(Nc2ccc3c(C4CCN(C)CC4)cn(C)c3n2)cc1F ... 96.7
FC(F)(F)c1ccc(Nc2ccc3c(C4CCNCC4)c[nH]c3n2)cn1 ... 83
CN1CCN(c2ccc(Nc3ccc4[nH]c5c(c4c3)CC(N(C)C)CC5)cc2)CC1 (stereo not drawn) ... 98
Cn1c2c(c3ccc(Nc4ccc5c(c4)OCCO5)nc31)CC(OCCF)CC2 (stereo not drawn) ... 91.6
COc1ccc(Nc2ccc3c(C4CCN(C)CC4)c[nH]c3c2)cc1OC ... 92.5
COCCOC1CCc2c(c3ccc(Nc4ccc(F)c(F)c4)nc3n2C)C1 (stereo not drawn) ... 88
FC(F)(F)c1ccc(Nc2ccc3c(C4CCNCC4)c[nH]c3c2)cn1 ... 81.9
CN1CCC(c2c[nH]c3cc(Nc4ccc(F)cc4)ccc23)CC1 ... 89.7
c1ccc(Nc2ccc3cc[nH]c3n2)nc1 ... 70.8
